Cited source for all entries: PubChem BioAssay (NCATS)

experiment: qHTS of pediatric cancer cell lines to identify multiple opportunities for drug repurposing: Primary screen for Rh41 cells (AID 1347108); settings: Rh41 rhabdomyosarcoma viability, CellTiter-Glo luminescence, 48 h; series mostly up to 46 µM; also: nearly all actives have a fitted effect of over 70% in size
Inconclusive results are not listed. The source made the active and inactive calls. Calls follow the shape of the dose curve; as a rule, active = well fitted cell-killing curve with a large enough effect; inconclusive = small, poorly fitted or top-dose-only effect; inactive = no such curve, though single readings can be large or run the other way.
Classes used: True for active, False for inactive

| compound | classification |
| --- | --- |
| CC(N)C(=O)OC(C)(C)Cc1ccc(Cl)cc1 (stereo not drawn) | False |
| Clc1ccccc1-c1nc(-c2ccncc2)no1 | False |
| O=C(CS)Nc1ccccc1 | True |
| CC(C)OC(=O)c1cc(C(=O)OC(C)C)cc([N+](=O)[O-])c1 | False |
| CC(C(=O)O)c1ccc2c(c1)[nH]c1ccc(Cl)cc12 (stereo not drawn) | False |
| Nc1cc(-c2ccncc2)c[nH]c1=O | False |
| CN(C)c1ccc(N=NS(=O)(=O)O)cc1 | False |
| COC(=O)c1nc(Cl)c(Cl)nc1N | True |
| CCOC(=O)c1ccccc1O | False |
| CCCCCCOc1ccccc1C(N)=O | False |
| CC(C(=O)O)c1ccc(C(=O)c2ccccc2)s1 (stereo not drawn) | False |
| COc1ccnc2c1CCCCC2S(=O)c1nc2ccccc2[nH]1 (stereo not drawn) | False |
| C#CC1(O)CC[C@H]2[C@@H]3CCC4=CCCC[C@@H]4[C@H]3CC[C@@]21C (stereo partly drawn) | False |
